# measuredTarget: rat kidney medullary V2 receptors (Rattus norvegicus, UniProt Q00788)
# Construct: Medullary tissues from rat kidneys are dissected out; from tissue; host or cells: rat kidney medulla membranes
# Sequence (Q00788 whole entry): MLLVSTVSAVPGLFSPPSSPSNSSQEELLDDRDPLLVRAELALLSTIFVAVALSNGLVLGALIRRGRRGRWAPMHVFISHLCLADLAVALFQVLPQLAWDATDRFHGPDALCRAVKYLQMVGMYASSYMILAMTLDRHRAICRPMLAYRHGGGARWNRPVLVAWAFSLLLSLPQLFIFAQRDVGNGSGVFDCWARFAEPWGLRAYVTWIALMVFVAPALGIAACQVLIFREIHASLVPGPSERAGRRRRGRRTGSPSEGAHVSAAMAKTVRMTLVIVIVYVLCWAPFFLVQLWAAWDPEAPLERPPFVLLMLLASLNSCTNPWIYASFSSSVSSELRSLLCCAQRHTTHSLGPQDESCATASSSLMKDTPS
# testSummary: Binding Assay to Rat Kidney Medullary V2 Receptors
# experimentalContext: 10 μM; rat kidney; read-out: V2, % at concentration in brackets
measure: inhibition at 10 µM (%)
Answers are plain numbers, in %.

Worked cases, inhibition at 10 µM given:
[ask] // inhibition at 10 µM lookup, key: Cc1cc(C(=O)N2Cc3ccccc3Cc3ccccc32)cc(C)c1NC(=O)c1ccc(Cl)cc1Cl [Example 259]
[reply] 13

[ask] What value of measured inhibition at 10 µM is listed for Cc1ccccc1C(=O)Nc1c(C)cc(C(=O)N2Cc3ccccc3Cc3ccccc32)cc1C [Example 258] ?
[reply] 87

[ask] What value of measured inhibition at 10 µM is listed for O=C(Nc1ccc(C(=O)N2Cc3ccccc3Cc3ccccc32)cc1)c1ccc(C(F)(F)F)cc1 [Example 20] ?
[reply] 48

Further cases:
[ask] Looking for the measured inhibition at 10 µM of O=C(c1ccc(NS(=O)(=O)c2ccccc2Cl)cc1)N1Cc2ccccc2Cc2ccccc21 [Example 450] , can you help?
[reply] 29

Where do these numbers come from? They come from patent US5834461A.
